biological target: T1, human Claudin18.2 (human); experiment: FACS, Claudin18.2-HEK293 cells
T1 construct: also called CLDN18.2
Measured Property: Span
Lab note: jot down the number only; don't add units.

# Binder, Measured Property, Endpoint Result
records = [
    ("humanized 370E2B12C3-VH3 + VL2 (antibody, human IgG1, kappa, V domains shown, humanized, human IgG1/kappa constant regions) VH: QVQLVESGGGVVQPGRSLRLSCAASGFSLTTYGVHWVRQAPGKGLEWVAVIWAGGSTNYNSALMSRFTISRDNSKNTLYLQMNSLRAEDTAVYYCARAAYYGNGLDYWGQGTMVTVSS VL: DIVMTQSPLSLPVTPGEPASISCKSSQTLLNSGNQKNYLTWYLQKPGQSPQLLIYWASTGESGVPDRFSGSGSGTDFTLKISRVEAEDVGVYYCQNAYFYPFTFGGGTKVEIKR", "Span", 4300),
    ("chimeric 237D2A4 (antibody, human IgG1, kappa, V domains shown, chimeric, human IgG1/kappa constant regions; also called 237D2A4-Chimeric) VH: QVQLKESGPGLVAPSQSLSITCTVSGFSLTSYGVSWVRQPPGKGLEWLGVIWGDGSTNYHSTLISRLRISKDKSKSQVFLKLNSLQTDDTATYYCAKAGRGNALDYWGQGTSVTVSS VL: DIVMTQSPSSLTVTAGEKVTMSCKSSQSLLNSGNQKNYLTWYQQKPGQPPKLLIYWASTRESGVPDRFTGSGSGTDFTLTISSVQAEDLAVYYCQNDYSFPLTFGAGTKLELKR", "Span", 14800),
]

Data request: Entry humanized 237D2A4-VH1.2 + VL1 (antibody, human IgG1, kappa, V domains shown, humanized, human IgG1/kappa constant regions) VH: QVQLQESGPGLVKPSETLSLTCTVSGFSLTSYGVSWIRQPPGKGLEWIGVIWGDGSTNYHSTLISRVTISKDTSKNQVFLKLSSVTAADTAVYYCAKAGRGNALDYWGQGTLVTVSS VL: DIVMTQSPDSLAVSLGERATINCKSSQSLLNSGNQKNYLTWYQQKPGQPPKLLIYWASTRESGVPDRFSGSGSGTDFTLTISSLQAEDVAVYYCQNDYSFPLTFGGGTKLEIKR needs its Span filled in; supply it.
Data returned: 15700
